- tgt: Tyrosine-protein kinase Blk (Homo sapiens)
- run parameters: at 1 µM
readout type: inhibition (%)
Numbers only; they are read as %.

Examples with their reported inhibition follow.
CS(=O)(=O)CCNCc1nc(-c2ccc3ncnc(Nc4ccc(F)c(Cl)c4)c3c2)cs1	7.95
O=C1NC(=O)C(c2ccccc2Cl)=C1Nc1cccc(O)c1	4.61
O=C1NC(=O)C(c2ccc(Cl)cc2)=C1Nc1ccc(Cl)c(C(=O)O)c1	-2.5

Ask | Report inhibition for `CS(=O)(=O)Nc1ccc(N/C=C2\C(=O)Nc3ccccc32)cc1` tested on Tyrosine-protein kinase Blk (Homo sapiens).
Reply | 18.2

Ask | API: value(readout= inhibition, system= Tyrosine-protein kinase Blk (Homo sapiens), query= `Cc1ccc(C(=O)NC2CCCCC2)cc1-c1ccc(C(=O)NCC2CC2)cc1` );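 further: mean percent inhibition of BLK kinase activity, from GSK PKIS kinase inhibitor set profiling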
Reply | 3.76

* * *

- Tested on: Receptor-type tyrosine-protein kinase FLT3 (Homo sapiens), P36888 [D835Y]
- run parameters: at 1 µM
compounds and their reported inhibition
Respond numerically; units are % and should not be typed.

N#Cc1c(NC(=O)c2cccc3ccccc23)sc2c1CCCC2	-2.86
COc1cc2ncn(-c3cc(OCc4ccccc4C(F)(F)F)c(C(N)=O)s3)c2cc1OC	14.5
CCCN1CCC=C(c2ccc(Nc3nc(Nc4ccccc4C(N)=O)c4cc[nH]c4n3)c(C)c2)C1	20.8
COc1ccc(-c2nn3ncccc3c2-c2ccnc(Nc3ccc(Cl)c(C(F)(F)F)c3)n2)cc1	-6.5

Ask | inhibition for `COc1ccccc1Nc1ncc(-c2ccccc2)o1` ?
Reply | 25.5

* * *

- tgt: Serine/threonine-protein kinase D1 (Homo sapiens) (UniProt Q15139)
- Sequence (Q15139 whole entry): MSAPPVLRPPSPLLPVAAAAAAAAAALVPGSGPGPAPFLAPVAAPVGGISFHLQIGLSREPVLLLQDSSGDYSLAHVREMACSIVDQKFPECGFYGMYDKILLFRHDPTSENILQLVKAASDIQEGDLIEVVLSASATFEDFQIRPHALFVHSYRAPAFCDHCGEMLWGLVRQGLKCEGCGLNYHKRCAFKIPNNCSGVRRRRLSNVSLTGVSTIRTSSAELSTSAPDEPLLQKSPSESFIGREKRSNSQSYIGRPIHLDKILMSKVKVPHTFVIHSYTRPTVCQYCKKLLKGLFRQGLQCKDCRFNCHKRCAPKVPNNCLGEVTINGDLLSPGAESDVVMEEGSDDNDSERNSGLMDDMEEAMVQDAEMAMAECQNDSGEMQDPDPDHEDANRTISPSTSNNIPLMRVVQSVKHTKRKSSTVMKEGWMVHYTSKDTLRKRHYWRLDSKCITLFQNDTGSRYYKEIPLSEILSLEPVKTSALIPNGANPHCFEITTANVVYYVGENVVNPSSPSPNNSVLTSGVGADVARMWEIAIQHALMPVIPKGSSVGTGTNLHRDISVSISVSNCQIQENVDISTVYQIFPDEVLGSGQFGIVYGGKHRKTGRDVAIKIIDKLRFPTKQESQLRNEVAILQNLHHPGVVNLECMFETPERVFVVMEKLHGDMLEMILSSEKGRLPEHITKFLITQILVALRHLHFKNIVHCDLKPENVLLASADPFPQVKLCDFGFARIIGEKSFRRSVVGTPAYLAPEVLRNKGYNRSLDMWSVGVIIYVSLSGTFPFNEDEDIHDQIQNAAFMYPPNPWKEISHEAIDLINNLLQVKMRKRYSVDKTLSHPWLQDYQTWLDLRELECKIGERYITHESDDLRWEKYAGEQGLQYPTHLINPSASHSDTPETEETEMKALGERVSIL
- run parameters: at 1 µM
inhibition by entry:
Numeric only. Scale: %

Nc1ncnc2occ(-c3ccc(NC(=O)Nc4cc(C(F)(F)F)cc(C(F)(F)F)c4)cc3)c12	1.94

Ask | Fill in: inhibition of `COc1cccc(-n2ncc3c(N/N=C/c4cccc(F)c4)ncnc32)c1` is ___
Reply | 0.28

Ask | # lookup: inhibition of `Fc1cccc(COc2ccc(Nc3ncnc4sc(-c5cccs5)cc34)cc2Cl)c1`
Reply | 0.23

Ask | # lookup: inhibition of `CS(=O)(=O)CCNCc1ccc(-c2ccc3ncnc(Nc4ccc(OCc5ccccc5)c(Cl)c4)c3c2)o1`
Reply | 0.36

Ask | Data request, read-out inhibition, for `O=C1NC(=O)C(c2cccc(Cl)c2)=C1Nc1ccc(O)c(Cl)c1`
Reply | 1.38

Ask | Bench note: what inhibition did `COC(=O)Nc1nc2cc(Oc3ccc(NC(=O)Nc4cccc(C(=O)O)c4)cc3)ccc2[nH]1` show?
Reply | -1.96

Ask | What value of inhibition has been recorded for this entry: `CCn1c(-c2nonc2N)nc2cncc(C(=O)N3CCNCC3)c21`
Reply | 6.72

Ask | So what's the measured inhibition for this one? `CCn1c(-c2nonc2N)nc2ccncc21`
Reply | 3.26

Ask | Would you mind telling me what inhibition value was observed for CC1=C(C(=O)Nc2ccc3[nH]ncc3c2)C(c2ccc3ccccc3c2)CC(=O)N1 (stereo not given) ?
Reply | 9.17

Ask | Entry `COc1ccc(COc2ccc(Cc3cnc(N)nc3N)cc2OC)cc1` has what inhibition?
Reply | 2.03

* * *

- tgt: Cytoplasmic tyrosine-protein kinase BMX (Homo sapiens)
- Sequence (whole entry): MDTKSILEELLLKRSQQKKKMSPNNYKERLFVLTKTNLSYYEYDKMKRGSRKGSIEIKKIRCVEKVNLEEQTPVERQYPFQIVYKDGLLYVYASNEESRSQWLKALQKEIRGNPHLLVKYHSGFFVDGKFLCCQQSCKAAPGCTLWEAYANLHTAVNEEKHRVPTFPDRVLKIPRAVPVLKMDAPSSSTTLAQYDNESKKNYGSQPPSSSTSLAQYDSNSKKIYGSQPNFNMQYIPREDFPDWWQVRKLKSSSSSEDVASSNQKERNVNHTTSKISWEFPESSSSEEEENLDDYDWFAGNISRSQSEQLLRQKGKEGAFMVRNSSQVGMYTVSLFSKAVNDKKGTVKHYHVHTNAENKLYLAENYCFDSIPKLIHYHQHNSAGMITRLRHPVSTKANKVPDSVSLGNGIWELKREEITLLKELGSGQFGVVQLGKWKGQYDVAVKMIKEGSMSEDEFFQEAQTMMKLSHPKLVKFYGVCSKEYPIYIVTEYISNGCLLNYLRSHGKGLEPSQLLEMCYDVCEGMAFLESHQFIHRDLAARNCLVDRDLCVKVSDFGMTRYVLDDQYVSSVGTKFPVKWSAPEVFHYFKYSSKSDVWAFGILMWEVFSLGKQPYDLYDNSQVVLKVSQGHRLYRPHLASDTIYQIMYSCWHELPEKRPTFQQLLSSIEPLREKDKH
- run parameters: at 1 µM
readout type: inhibition (%)
Respond with the bare value in %.

COc1cc2c(cc1Nc1nc(N3CCc4ccccc43)c3cc[nH]c3n1)N(C(=O)CN(C)C)CC2	4.16
CCn1c(-c2nonc2N)nc2ccncc21	-0.38

Ask | Sample `Cn1cc(C=C2C(=O)Nc3cccnc32)c2ccccc21` — what was its inhibition?
Reply | 4.89

Ask | Query: inhibition; subject: `CS(=O)(=O)CCNCc1ccc(-c2ccc3ncnc(Nc4ccc(OCc5ccccc5)c(Cl)c4)c3c2)o1`
Reply | 4.31

Ask | Reported inhibition, compound `COC(=O)Nc1nc2cc(Oc3cccc(NC(=O)Nc4cc(C(F)(F)F)ccc4F)c3)ccc2[nH]1` : ____
Reply | -1.52

Ask | What measured inhibition goes with `CCn1c(-c2nonc2N)nc2c(N3CCCC3)nccc21` ?
Reply | -1.4

Ask | Please give the measured inhibition for this compound: `Cc1nnc(-c2ccc(C)c(-c3ccc(C(=O)Nc4cccc(C#N)c4)cc3)c2)o1`
Reply | 2.78

Ask | Name the recorded inhibition for `COc1cc2ncn(-c3cc(OCc4ccccc4Cl)c(C(N)=O)s3)c2cc1OC` .
Reply | 4.4

Ask | What does the record list as inhibition for `COc1cc(C=NNc2ncnc3c2cnn3-c2ccccc2)ccc1O` ?
Reply | 21.9

Ask | Please give the measured inhibition for this compound: `CCn1c(-c2nonc2N)nc2c(C#CC(C)(C)O)nc(CN3CCCC3)cc21`
Reply | -1.55

* * *

- System: Receptor-type tyrosine-protein kinase FLT3 (Homo sapiens), P36888 [D835Y]
- Sequence (whole entry): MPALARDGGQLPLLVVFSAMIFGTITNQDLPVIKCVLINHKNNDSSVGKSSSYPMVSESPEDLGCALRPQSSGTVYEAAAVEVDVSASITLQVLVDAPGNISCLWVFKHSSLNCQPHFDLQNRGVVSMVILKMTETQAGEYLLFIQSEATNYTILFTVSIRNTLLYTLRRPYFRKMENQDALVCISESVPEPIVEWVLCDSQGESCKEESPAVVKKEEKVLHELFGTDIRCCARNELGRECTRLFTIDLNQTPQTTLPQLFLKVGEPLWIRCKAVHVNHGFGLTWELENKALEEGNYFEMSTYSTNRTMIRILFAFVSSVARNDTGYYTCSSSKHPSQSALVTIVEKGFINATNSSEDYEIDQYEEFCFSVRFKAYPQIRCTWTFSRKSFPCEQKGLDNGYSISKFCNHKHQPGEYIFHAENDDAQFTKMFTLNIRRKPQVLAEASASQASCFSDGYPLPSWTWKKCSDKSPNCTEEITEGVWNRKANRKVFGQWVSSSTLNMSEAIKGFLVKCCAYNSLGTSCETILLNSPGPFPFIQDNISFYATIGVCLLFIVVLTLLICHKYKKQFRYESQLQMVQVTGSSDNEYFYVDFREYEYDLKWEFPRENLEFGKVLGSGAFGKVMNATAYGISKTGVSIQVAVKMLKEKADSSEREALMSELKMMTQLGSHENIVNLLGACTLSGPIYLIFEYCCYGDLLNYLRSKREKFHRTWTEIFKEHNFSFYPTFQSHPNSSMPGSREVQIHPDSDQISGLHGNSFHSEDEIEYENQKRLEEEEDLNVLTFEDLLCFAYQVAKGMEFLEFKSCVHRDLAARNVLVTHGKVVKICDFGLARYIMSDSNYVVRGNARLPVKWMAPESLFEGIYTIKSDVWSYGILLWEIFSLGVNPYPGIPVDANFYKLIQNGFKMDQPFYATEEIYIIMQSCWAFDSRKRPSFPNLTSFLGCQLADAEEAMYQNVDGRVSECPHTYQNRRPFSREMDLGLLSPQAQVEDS
- run parameters: at 0.1 µM
# inhibition values compiled below
Just the number in %, nothing appended.

Known results for compounds:
Cc1ccc(NC(=O)c2ccnc(N3CCCC3)c2)cc1-c1ccc(C(=O)NCC2CC2)cc1	-8.49
NS(=O)(=O)c1ccc(N/N=C2\C(=O)Nc3ccc(C(=O)NCCc4c[nH]cn4)cc32)cc1	8.84
COc1cccc(-n2ncc3c(N/N=C/c4cccc(F)c4)ncnc32)c1	9.42

Ask | Query: inhibition; subject: CC1=C(C(=O)Nc2ccc3[nH]ncc3c2)C(c2ccc(Cl)c(Cl)c2)CC(=O)N1 (stereo not drawn)
Reply | -2.38

Ask | Which inhibition value belongs to `c1cnn2ncc(-c3ccnc(Nc4ccc5c(c4)OCCO5)n3)c2c1` ?
Reply | 9.31

Ask | // lookup inhibition for `COc1cc(C)c(NC(=O)CN(C)C)cc1Nc1nc(Nc2cccc(F)c2C(N)=O)c2cc[nH]c2n1`
Reply | -5.02

Ask | Bench note: what inhibition did `Cc1cccc(-c2n[nH]cc2-c2ccc3ncccc3n2)n1` show?
Reply | -5.04

Ask | What does the record list as inhibition for `Fc1cccc(COc2ccc(Nc3ncnc4cc(-c5ccc[nH]5)sc34)cc2Cl)c1` ?
Reply | 2.49

These entries and their values trace back to ChEMBL document CHEMBL1961873.
